IC50, Tau40 assay (ThT) listing for selected binders.
# assay.system: Tau40 P301L protein (human)
# measurement.description: cell-based or functional assay
Square brackets hold non-standard residues; d marks the D form. Ends that are not written are not given here.
Note: unit µM is implicit; provide only the numeric part.

// solved cases for IC50, Tau40 assay (ThT) follow
binder	quantity.unit	IC50, Tau40 assay (ThT)
[dW][dR][dI][dR][dI][dR][dW] [wririrw]	µM	3
[dL][dK][dI][dE][dI][dH][dY][dH] [lkieihyh]	µM	3.64
[dW][dI][dK][dI][dV][dR] [wikivr]	µM	6.97

### Prompt Look at this binder and give its reported IC50, Tau40 assay (ThT). [dA][dK][dI][dR][dI][dH][dY][dH] [akirihyh]
### Response 3.54
